All figures here come from the supplement of paper PMC10567573.

B1: C1orf137 (parent)
chain: LPQETNLTLKVCKPQAPQKLDPTL

Variants of: B1
Assay: protein stability index of a GFP-peptide fusion (GPS, HEK-293T) (PSI 1-6); higher = more stable;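 note: lentivirally expressed fusions sorted by FACS into six bins by GFP to DsRed ratio, PSI derived from sequencing read proportions per bin multiplied by bin number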
Settings: c terminus: a fixed tail appended
// criterion not met strictly below 4 in protein stability index; criterion met otherwise

// below: answered variants
N6C :: criterion not met
T8Q :: criterion met
Q3I :: criterion not met
T8M :: criterion not met

# evaluate next
[Q] Please indicate if the recorded protein stability index for L24T meets or exceeds 4.
[A] criterion met
